test system: glioblastoma cell line GL261; assay: GL261 glioblastoma tumor grafted on the chorio-allantoic membrane (CAM) of embryonated chicken eggs, tumor weight at E19; type: in vivo, chicken embryo (Fertilized White Leghorn eggs); conditions: test compound alone (100 nM)
Structures can show the parent of a compound that is named as a salt.
MEASUREMENT TYPE: Effect on GL261 tumor size, in words

MOLECULE | ASSAY SYSTEM | MEASUREMENT TYPE | READOUT VALUE
CC(C)CCO/N=C(\N)N/N=C/c1ccccc1Cl [Compound 11, Formate Salt] | glioblastoma cell line GL261 | Effect on GL261 tumor size, in words | reduces the tumor size
C=CCO/N=C(\N)N/N=C/c1ccccc1Cl | glioblastoma cell line GL261 | Effect on GL261 tumor size, in words | reduces the tumor size
